Biological target: SIRT1 (Homo sapiens)
Sequence (Q96EB6 1-747): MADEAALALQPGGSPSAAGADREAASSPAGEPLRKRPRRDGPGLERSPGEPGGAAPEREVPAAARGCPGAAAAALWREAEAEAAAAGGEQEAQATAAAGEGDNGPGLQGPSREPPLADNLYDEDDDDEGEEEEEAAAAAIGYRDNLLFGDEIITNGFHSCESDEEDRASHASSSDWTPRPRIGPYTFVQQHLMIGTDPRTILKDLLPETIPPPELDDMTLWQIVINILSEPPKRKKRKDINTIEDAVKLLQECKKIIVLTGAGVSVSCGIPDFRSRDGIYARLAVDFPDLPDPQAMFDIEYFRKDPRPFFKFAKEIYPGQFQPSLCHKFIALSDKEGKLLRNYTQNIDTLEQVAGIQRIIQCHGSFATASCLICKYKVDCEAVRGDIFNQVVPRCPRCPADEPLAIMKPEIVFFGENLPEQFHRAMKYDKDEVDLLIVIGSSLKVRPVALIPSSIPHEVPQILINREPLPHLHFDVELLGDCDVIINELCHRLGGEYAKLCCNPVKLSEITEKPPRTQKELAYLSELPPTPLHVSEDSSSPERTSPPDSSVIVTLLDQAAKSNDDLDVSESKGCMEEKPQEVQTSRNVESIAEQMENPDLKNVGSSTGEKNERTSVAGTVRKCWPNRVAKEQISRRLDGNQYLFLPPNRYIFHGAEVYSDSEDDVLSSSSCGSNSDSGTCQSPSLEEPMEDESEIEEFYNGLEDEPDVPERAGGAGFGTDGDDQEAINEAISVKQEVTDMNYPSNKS
Assay: Trp mass spectrometry assay (SIRT1 activation)
Assay type: biochemical
Conditions: Trp mass spectrometry assay; EC1.5 = concentration of test compound that results in 150% activation of SIRT1
measured.quantity: Tryp AVG EC1.5 (μM)

Some molecules with known Tryp AVG EC1.5 (μM) results, for comparison:
molecule: COc1cc(NC(=O)N2c3nc(-c4ccnc(C(F)(F)F)c4)ccc3N3CC[C@H]2C3)ncn1
test.result: A (EC1.5<1 μM)

molecule: COc1cc(-c2cccc(C(F)(F)F)c2)nc2c1N1CC[C@@H](C1)N2C(=O)Nc1nc(C)c(C)s1
test.result: A (EC1.5<1 μM)

molecule: O=C(Nc1ccccn1)N1c2nc(-c3cccc(OC(F)(F)F)c3)ccc2N2CC[C@H]1C2
test.result: A (EC1.5<1 μM)

molecule: O=C(Nc1cccc(-c2cnco2)c1)N1c2nc(-c3cccc(N4CCCC4)c3)ccc2N2CC[C@H]1C2
test.result: A (EC1.5<1 μM)

molecule: COc1cc(NC(=O)N2c3nc(-c4cccc(OC(F)(F)F)c4)ccc3N3CC[C@H]2C3)ncn1
test.result: A (EC1.5<1 μM)

molecule: O=C(Nc1cncc(F)c1)N1c2nc(-c3cccc(N4CCCC4)c3)ccc2N2CC[C@H]1C2
test.result: B (EC1.5 1-25 μM)

Query: For SIRT1 (Homo sapiens), provide Tryp AVG EC1.5 (μM) of CCn1ncc2c(NC(=O)N3c4nc(-c5cccc(C(F)(F)F)c5)ccc4N4CC[C@H]3C4)cccc21 please.
Response: A (EC1.5<1 μM)

Query: Lookup: Tryp AVG EC1.5 (μM) / SIRT1 (Homo sapiens) / O=C(Nc1ccncc1F)N1c2nc(-c3cccc(N4CCCC4)c3)ccc2N2CC[C@H]1C2
Response: A (EC1.5<1 μM)

Query: Value wanted: Tryp AVG EC1.5 (μM) (SIRT1 (Homo sapiens)) of entry Cc1nc(NC(=O)N2c3nc(-c4cccc(C(F)(F)F)c4)ccc3N3CC[C@@H]2C3)sc1C
Response: B (EC1.5 1-25 μM)

Query: Missing value: Tryp AVG EC1.5 (μM), SIRT1 (Homo sapiens), entry CN(C)c1ccnc(NC(=O)N2c3nc(N4CCCC(C(F)(F)F)C4)ccc3N3CC[C@H]2C3)n1 (some centres unmarked) . Fill in?
Response: B (EC1.5 1-25 μM)

Query: // map O=C(Nc1ccccn1)N1c2nc(-c3cccc(OC[C@@H](O)CO)c3)ccc2N2CC[C@H]1C2 to recorded Tryp AVG EC1.5 (μM) (system: SIRT1 (Homo sapiens))
Response: B (EC1.5 1-25 μM)

Query: Item: O=C(Nc1ccccn1)N1c2nc(-c3cccc(C(F)(F)F)c3)ccc2N2CCC1CC2 Test system: SIRT1 (Homo sapiens) Read-out: Tryp AVG EC1.5 (μM) Value: ?
Response: B (EC1.5 1-25 μM)

Query: Can you look up Tryp AVG EC1.5 (μM) on SIRT1 (Homo sapiens) for O=C(Nc1ccncc1)N1c2nc(-c3cccc(C(F)(F)F)c3)ccc2N2CCC[C@@H]1C2 ?
Response: B (EC1.5 1-25 μM)

Query: Missing value: Tryp AVG EC1.5 (μM), SIRT1 (Homo sapiens), entry N#Cc1cccc(-c2ccc3c(n2)N(C(=O)Nc2ccccn2)[C@H]2CCN3C2)c1 . Fill in?
Response: A (EC1.5<1 μM)
